Target: hSirt3^102-399 (Homo sapiens)
Construct: hSirt3^102-399 was expressed in E. coli Arctic Express (DE3) cells; His-tag (only implied by the HisTrap / imidazole purification)
Sequence (Q9NTG7 102-399): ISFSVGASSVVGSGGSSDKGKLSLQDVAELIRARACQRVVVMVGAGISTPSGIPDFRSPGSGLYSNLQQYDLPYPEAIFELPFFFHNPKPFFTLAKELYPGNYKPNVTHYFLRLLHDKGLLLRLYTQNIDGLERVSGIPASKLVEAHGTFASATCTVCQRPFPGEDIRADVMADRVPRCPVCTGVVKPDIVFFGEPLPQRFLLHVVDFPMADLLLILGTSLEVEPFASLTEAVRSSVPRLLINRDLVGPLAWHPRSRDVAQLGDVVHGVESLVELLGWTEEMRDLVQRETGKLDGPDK
Test: hSirt3 ligand binding assay by microscale thermophoresis (MST)
Conditions: Sirt3.Ac-MnSOD complex (FIG. 9)
quantity: Kd

-- ask # lookup: Kd of C=CCc1ccc(O)c(-c2ccc(O)c(CC=C)c2)c1 [HKL, 5, 3′-Diallyl-2, 4′-dihydroxybiphenyl]
-- reply < 10 µM

Measured values drawn from patent US12565673B2 for this set.
